Biological target: T1, Peptide A (human PAR-2), C-terminal biotinylated (Human, C-terminal biotin via G4S linker)
T1 construct: also called Peptide A C-Term
Test: peptide ELISA
Attribute measured: OD450

Form field: reported OD450 of H2M589N (antibody, V domains shown, chimeric: human variable, mouse constant domains) VH: EVQLLESGGGLVQPGGSLRLSCATSGFTFSRYTMTWVRQAPGKGLFWVSGIGGSGGRAYYADSVKGRFTLSRDNSKNTLYLQMNSLRAEDTAVYYCAKEGDSGYDLDYWGRGTLVTVSS VL: DIQMTQYPSSLSASVGDRVTITCRARQGISNYLAWLQQKPGKAPKSLIYAASSLQRGVPSKFSGSGSGTDFTLTISSLQPEDSATYYCQQYKISPLTFGGGTKVEIK 1 to 4 od

Form field: reported OD450 of H2M609N (antibody, V domains shown, chimeric: human variable, mouse constant domains) VH: EVQLVESGGGLVQPGRSLRLSCAASGFTFDDYAMHWVRQAPGKGLEWVSGISWNSGSKGFADSVKGRFTISRDNAKNSLYLQMNSLRVEDTALYYCAKENWSFDYWGQGTLVTVSS VL: DIVMTQTPLSSPVTLGQPASISCRSSQSLVHSDGNIYLSWLQQRPGQPPRLLIYKISNRFSGVPDRFSGSGAGTDFTLKISRVEAEDVGIYYCMQASHFPYTFGQGTKLEIK 1 to 4 od

Form field: reported OD450 of H1M619N (antibody, V domains shown, chimeric: human variable, mouse constant domains) VH: EVQLVESGGGLVQAGRSLRLSCAASGFTFDDYAMHWVRQAPGKGLEWVSGISWNSGSRGYADSVKGRFTISRDNAKNSLHLQMYSLRAEDTALYYCAKENWSFDYWGQGTLVTVSS VL: DIVMTQTPLSSPVTLGQPASISCRSSQSLVHSDGNTYLSWLQQRPGQPPRLLIYKISYRFSGVPDRFSGSGAGTDFTLKISRVATEDVGVYYCMQATQLPYTFGQGTKLEIK 1 to 4 od
